Assay Remarks: DRUGMATRIX: GABAA, Flunitrazepam, Central radioligand binding (ligand: [3H] Flunitrazepam)
Format: cell membranes, Rattus norvegicus, Wistar, Brain, Membrane
Particulars: Not Active = under 50% inhibition at 10 µM
Assay Metric: Ki

> print(dat)
          substance  assay.metric  data.value
1          POVIDONE            Ki  Not Active
2  CHROMIC CHLORIDE            Ki  Not Active
3  LEAD(IV) ACETATE            Ki  Not Active
4  COPPER(II) OXIDE            Ki  Not Active

// next entry
Value lookup for Ki; key = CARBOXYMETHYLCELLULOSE
Not Active
